{"columns": ["molecule", "melting point"],
 "data": [
  ["CCOc1ccc(-c2nc(C(=N)NOC(=O)OCc3ccccc3)c3[nH]c(=O)n(-c4ccccc4OC)c3n2)cc1 [Compound 22a]", "246 to 248 °C"],
  ["CCOc1ccc(-c2nc(C(=O)O)c3nc(S)n(-c4ccccc4)c3n2)cc1 [Compound 29a]", "320 °C (dec.)"],
  ["CCOc1ccc(-c2nc(C(N)=O)c3[nH]c(=O)n(-c4cccc([N+](=O)[O-])c4)c3n2)cc1", "322.8 to 324.3 °C"],
  ["CCOc1ccc(-c2nc(C(=N)NOC(=O)Oc3ccccc3)c3[nH]c(=O)n(-c4ccccc4OC)c3n2)cc1 [Compound 22b]", "209 to 211 °C"],
  ["COc1ccc(-c2nc(C(=N)NO)c3[nH]c(=O)n(-c4ccccc4OC)c3n2)cc1O [Compound 14f]", "226 to 228 °C"],
  ["CCOc1ccc(-c2nc(C(=O)NN(C)C)c3[nH]c(=O)n(-c4ccccc4OC)c3n2)cc1 [Compound 20b]", "279.6 to 281 °C"],
  ["C=CCn1oc(=O)nc1-c1nc(-c2ccc(OCC)cc2)nc2c1n(CC=C)c(=O)n2-c1ccccc1OC [Compound 25a]", "88 to 90 °C"]
]}

---

- Tested on: H1975 lung cancer cells
- assay.protocol: MTT assay, growth of H1975 lung cancer cells
- Format: cell-based
- reported.conditions: Homo sapiens, NCI-H1975; H1975; MTT; Table 2; read-out: IC50 against the growth of H1975 lung cancer cells
pIC50: −log10 of the molar value.
Classification field: enter 1.0 for pIC50 values not below 5, 0.0 for values below it.

{"columns": ["molecule", "answer.label"],
 "data": [
  ["COc1ccc(-c2nc(C(=N)NO)c3[nH]c(=O)n(-c4ccccc4OC)c3n2)cc1O [Compound 14f]", 1.0],
  ["CCOc1ccc(-c2nc(C(N)=O)c3nc(SC(C)=O)n(-c4ccccc4)c3n2)cc1 [Compound 26a]", 0.0],
  ["COc1ccc(-c2nc(C#N)c3[nH]c(=O)n(-c4ccccc4OC)c3n2)cc1O [Compound 12f]", 0.0],
  ["CCCCCCNC(=O)c1cccc(-n2c(=O)[nH]c3c(C(N)=O)nc(-c4ccc(OCC)cc4)nc32)c1 [Compound 8a]", 1.0],
  ["CCCCOc1ccc(-c2nc(C(N)=O)c3[nH]c(=O)n(-c4ccccc4OC)c3n2)cc1 [Compound 5c]", 1.0],
  ["CCOc1ccc(-c2nc(C(N)=O)c3nc(SCC(=O)O)n(-c4ccccc4)c3n2)cc1 [Compound 11g]", 1.0],
  ["CCOc1ccc(-c2nc(C(N)=O)c3[nH]c(=O)n(-c4cccc(C(=O)NCCCCCN=[N+]=[N-])c4)c3n2)cc1 [Compound 8c]", 1.0],
  ["CCCCSc1nc2c(C(N)=O)nc(-c3ccc(OCC)cc3)nc2n1-c1ccccc1 [Compound 11b]", 1.0],
  ["CCOc1ccc(-c2nc(C(N)=O)c3nc(SCC(=O)OC)n(-c4ccccc4)c3n2)cc1 [Compound 11f]", 1.0],
  ["CCOc1ccc(-c2nc(C(N)=O)c3[nH]c(=O)n(-c4cccc(C(=O)NCCCCCNC(=O)OC(C)(C)C)c4)c3n2)cc1 [Compound 8d]", 0.0],
  ["CCOc1ccc(-c2nc(C(N)=O)c3nc(SCC(=O)N4CCN(C(=O)OC(C)(C)C)CC4)n(-c4ccccc4)c3n2)cc1 [Compound 11d]", 1.0]
]}
